assay-remarks: Evaluation of stability in human plasma, HPLC or LC-TOF
Type: in vitro ADME
applied-conditions: human, human plasma (100%), read-out: half-life of the acetyl groups on the alcohol
readout-kind: half-life at 4 mM

(Q) Output half-life at 4 mM of CC(=O)OCCC(O)(CF)CC(=O)NCc1ccccc1 (stereo not shown) [compound 65]
(A) ~20 min

----------
# key: entry, value: half-life at 4 mM
assay-remarks: Evaluation of stability in human plasma, HPLC or LC-TOF
Type: in vitro ADME
applied-conditions: human, human plasma (100%), 37° C., read-out: T1/2 (half-lives of diverse carbonate in human plasma)

compound	measured-value
CC1(CC(=O)Oc2ccc3c(c2)CCC3)CCOC(=O)O1 (centres unmarked)	< 3 min

Below: the item to evaluate.
(Q) Provide measured half-life at 4 mM value, entry: O=C(CC1(C(F)(F)F)CCOC(=O)O1)OCCc1ccccc1 (centres unmarked)
(A) 4 min

----------
assay-remarks: Evaluation of stability in PBS buffer (pH=7.4), HPLC
Format: physicochemical
applied-conditions: PBS buffer pH=7.4, 37° C.; read-out: half-life time (T1/2) in PBS buffer (converted)
readout-kind: half-life at 1 mM

molecule	half-life at 1 mM
O=C(CC1(C(F)(F)F)CCOC(=O)O1)OCc1ccc(F)cc1 (stereo not shown) [compound 39]	~5 h
O=C(CC1(CF)CCOC(=O)O1)OCc1ccccc1 (stereo not shown) [compound 25]	~25 h

(Q) Tell us which half-life at 1 mM value is on record for CC1(CC(=O)OCc2ccccc2)CCOC(=O)O1 (stereo not shown) [compound 4]
(A) > 48 h

(Q) Retrieve half-life at 1 mM measured for O=C(CC1(C(F)(F)F)CCOC(=O)O1)OCc1ccc(F)cc1F (stereo not shown) [compound 40] and print it.
(A) ~5 h

(Q) Hello, please tell me recorded half-life at 1 mM for this one: O=C(CC1(CF)CCOC(=O)O1)OCc1ccc(F)cc1F (stereo not shown) [compound 30]
(A) ~25 h

(Q) Identify measured half-life at 1 mM associated with O=C(CC1(C(F)(F)F)CCOC(=O)O1)OCc1ccccc1 (stereo not shown) [compound 35]
(A) ~5 h

(Q) Consider the molecule O=C(CC1(CF)CCOC(=O)O1)OCc1ccc(F)cc1 (stereo not shown) [compound 29] . State its measured half-life at 1 mM.
(A) ~25 h

----------
assay-remarks: Evaluation of stability in human plasma, HPLC or LC-TOF
Type: in vitro ADME
applied-conditions: human, human plasma (100%), 37° C., read-out: T1/2 (stabilities of amide and ester analogues in human plasma)
readout-kind: half-life at 4 mM (min)
The figure you give is taken to be in min; do not add the unit.

(Q) Complete the entry with half-life at 4 mM for CC(=O)OCCC(O)(CF)CC(=O)NCc1ccccc1 (stereo not shown)
(A) 20

----------
Each item that follows carries a reported half-life at 4 mM.
assay-remarks: Evaluation of stability in human plasma, HPLC or LC-TOF
Format: in vitro ADME
applied-conditions: read-out: half-life of the ester moieties on the carboxylic acids

molecule	readout-kind	measured-value
COC(=O)CC(O)(CF)CCOC(C)=O (centres unmarked)	half-life at 4 mM	10 to 22 min

Could you now look at the following molecule, please?
(Q) Let me know recorded half-life at 4 mM for CCOC(=O)CC(O)(CF)CCOC(C)=O (centres unmarked) , thanks.
(A) 10 to 22 min

----------
assay-remarks: Evaluation of stability in human plasma, HPLC or LC-TOF
Format: in vitro ADME
applied-conditions: 37° C.
readout-kind: T1/2 (half-lives of diverse carbonate in human plasma)

These recorded examples may help you get a feel for the data.
molecule	measured-value
O=C(CC1(CF)CCOC(=O)O1)OCc1ccc(F)cc1F (stereo not drawn)	1 min
O=C(CC1(CF)CCOC(=O)O1)OCc1ccc(F)cc1 (stereo not drawn)	2 min
O=C(CC1(C(F)(F)F)CCOC(=O)O1)OCc1ccc(F)cc1F (stereo not drawn)	<1 min
O=C(CC1(C(F)(F)F)CCOC(=O)O1)OCc1ccc(F)cc1 (stereo not drawn)	<1 min
O=C(CC1(C(F)(F)F)CCOC(=O)O1)OCc1ccccc1 (stereo not drawn)	<1 min

(Q) Please give measured T1/2 (half-lives of diverse carbonate in human plasma) of the following entry: O=C(CC1(CF)CCOC(=O)O1)OCc1ccccc1 (stereo not drawn)
(A) 2 min

----------
Here, each record is paired with measured half-life at 4 mM data.
assay-remarks: Evaluation of stability in human plasma, HPLC or LC-TOF
Type: in vitro ADME
applied-conditions: human, human plasma (100%), 37° C., read-out: half-life (T1/2) in human plasma

Past entries and their recorded results:
compound	readout-kind	measured-value
O=C(CC1(CF)CCOC(=O)O1)OCc1ccccc1 (centres unmarked) [compound 25]	half-life at 4 mM	< 3 min
CC1(CC(=O)Oc2ccccc2)CCOC(=O)O1 (centres unmarked) [compound 9]	half-life at 4 mM	< 3 min
CC1(CC(=O)NCc2ccccc2)CCOC(=O)O1 (centres unmarked) [compound 18]	half-life at 4 mM	8 min
CC1(CC(=O)Oc2ccc3c(c2)CCC3)CCOC(=O)O1 (centres unmarked) [compound 11]	half-life at 4 mM	< 3 min

Alright, here's another compound for you.
(Q) For the compound O=C(CC1(C(F)(F)F)CCOC(=O)O1)OCc1ccccc1 (centres unmarked) [compound 35] , report half-life at 4 mM.
(A) < 3 min

----------
assay-remarks: Evaluation of stability in human plasma, HPLC or LC-TOF
Assay type: in vitro ADME
applied-conditions: human, human plasma (100%), 37° C., read-out: T1/2 (stabilities of the benzyl amide analogues with acetal, ketal, t-butyl carbonate promoieties in human plasma)
// reported half-life at 4 mM per item

compound	half-life at 4 mM
COc1ccc(C2OCCC(CC(=O)NCc3ccccc3)(C(F)(F)F)O2)cc1 (centres unmarked) [compound 52]	> 48 h

(Q) Hello, please tell me recorded half-life at 4 mM for this one: CC1(C)OCCC(CC(=O)NCc2ccccc2)(C(F)(F)F)O1 (centres unmarked) [compound 48]
(A) > 48 h

----------
Overview of reported melting point across a group of compounds:

compound	melting point
O=C(CC1(C(F)(F)F)CCOC(=O)O1)OCc1ccccc1 (stereo not drawn)	87.5 to 88 °C

(Q) Respond only with melting point recorded for CC1(CC(=O)Oc2ccc(F)cc2)CCOC(=O)O1 (stereo not drawn)
(A) 68 to 69 °C

(Q) Return reported melting point. Input compound: CC1(CC(=O)Oc2ccc3c(c2)CCC3)CCOC(=O)O1 (stereo not drawn)
(A) 88 to 89 °C

(Q) Output measured melting point for this item: O=C(CC1(C(F)(F)F)CCOC(=O)O1)OCc1ccc(F)cc1 (stereo not drawn)
(A) 84 to 85 °C

(Q) Look up melting point of COC(=O)CC1(CF)CCOC(=O)O1 (stereo not drawn) and report it.
(A) 42 to 42.5 °C

(Q) Specify measured melting point for CC1(CC(=O)Oc2ccccc2)CCOC(=O)O1 (stereo not drawn) .
(A) 62 to 62.5 °C

----------
assay-remarks: Evaluation of stability in human plasma, HPLC or LC-TOF
Assay type: in vitro ADME
applied-conditions: human, human plasma (100%), 37° C., read-out: half-life (T1/2) in human plasma
readout-kind: half-life at 4 mM

(Q) Consider the compound CC1(CC(=O)Nc2ccccc2)CCOC(=O)O1 (stereo not drawn) [compound 17] and give its recorded half-life at 4 mM.
(A) < 3 min

(Q) Quickly give me recorded half-life at 4 mM for CC1(CC(=O)NCc2ccc(F)cc2)CCOC(=O)O1 (stereo not drawn) [compound 19]
(A) 8 min

(Q) Indicate its recorded half-life at 4 mM; the compound in question is O=C(CC1(C(F)(F)F)CCOC(=O)O1)OCCc1ccccc1 (stereo not drawn) [compound 41]
(A) < 3 min

----------
assay-remarks: Evaluation of stability in human plasma, HPLC or LC-TOF
Format: in vitro ADME
applied-conditions: human, human plasma (100%), 37° C., read-out: half-life (T1/2) in human plasma
Procedure: The stabilities of diverse cyclic carbonate prodrugs (4, 9, 10, 11, 17, 18, 19, 25, 29, 30, 39, 40, and 41), which have a chromosphere for UV detection, in human plasma were tested using HPLC. After the mixture of test compounds and human plasma were incubated at 37° C., the degradation of the compounds was monitored by HPLC (Table 2). […] Human plasma (100%, 480 μL) was incubated at 37° C. for 5 min. […] The supernatant was filtered and the filtrate was analyzed by HPLC or LC-TOF (See below). […]
readout-kind: half-life at 4 mM

Examples with their reported half-life at 4 mM follow.
molecule	readout-kind	measured-value
O=C(CC1(CF)CCOC(=O)O1)OCc1ccc(F)cc1F (stereo not drawn) [compound 30]	half-life at 4 mM	< 3 min
O=C(CC1(CF)CCOC(=O)O1)OCc1ccc(F)cc1 (stereo not drawn) [compound 29]	half-life at 4 mM	< 3 min
CC1(CC(=O)Oc2ccc(F)cc2)CCOC(=O)O1 (stereo not drawn) [compound 10]	half-life at 4 mM	< 3 min
O=C(CC1(C(F)(F)F)CCOC(=O)O1)OCc1ccc(F)cc1 (stereo not drawn) [compound 39]	half-life at 4 mM	< 3 min
CC1(CC(=O)OCc2ccccc2)CCOC(=O)O1 (stereo not drawn) [compound 4]	half-life at 4 mM	4 min

// below: half-life at 4 mM requested for another molecule
(Q) Report measured half-life at 4 mM; entry is O=C(CC1(C(F)(F)F)CCOC(=O)O1)OCc1ccc(F)cc1F (stereo not drawn) [compound 40]
(A) < 3 min
